Hello, the source for this data is patent US10952433B2, in case you need it.

What Percent Lepidopteran Damage to Romaine Lettuce 24 hr was measured for each of the following?
- Tested on: lepidopteran larvae: cabbage loopers (Trichoplusia ni) and beet armyworms (Spodoptera exigua)
- Assay type: in vivo
- DETAILS: plants; insecticide + buffered amine oxide system PO4, 12, 200:1; PPM: Chlorantranilopril 60, Acephate 70, Methoxyfenozide 100, Spinosad 30, Permethrin 10, Indoxacarb 50
The reply should be a number in %, with the unit left off.

Asked: Which Percent Lepidopteran Damage to Romaine Lettuce 24 hr reading was recorded for the molecule COP(=O)(NC(C)=O)SC (centres unmarked) [Acephate] ?
Given back: 7.5

Asked: Item under review: `COC(=O)N(C(=O)N1CO[C@@]2(C(=O)OC)Cc3cc(Cl)ccc3C2=N1)c1ccc(OC(F)(F)F)cc1` . Reported Percent Lepidopteran Damage to Romaine Lettuce 24 hr?
Given back: 7.5

Asked: Bench note: what Percent Lepidopteran Damage to Romaine Lettuce 24 hr did CC1(C)C(C=C(Cl)Cl)C1C(=O)OCc1cccc(Oc2ccccc2)c1 (centres unmarked) show?
Given back: 24.0

Asked: For the molecule COc1cccc(C(=O)NN(C(=O)c2cc(C)cc(C)c2)C(C)(C)C)c1C [Methoxyfenozide] , what Percent Lepidopteran Damage to Romaine Lettuce 24 hr is on record?
Given back: 7.5

Asked: Fill in the blank: the reported Percent Lepidopteran Damage to Romaine Lettuce 24 hr of `CNC(=O)c1cc(Cl)cc(C)c1NC(=O)c1cc(Br)nn1-c1ncccc1Cl` is ____.
Given back: 4.0

* * *

- Tested on: lepidopteran larvae: cabbage loopers (Trichoplusia ni) and beet armyworms (Spodoptera exigua)
- Type: in vivo
- DETAILS: leaf discs; 72 hr; insecticide + buffered amine oxide system PO4, 1218, 200:1; PPM: Chlorantranilopril 60, Acephate 70, Methoxyfenozide 100, Spinosad 30, Permethrin 10, Indoxacarb 50
- Protocol: A second series of tests involved romaine lettuce discs approximately ⅝ inch in diameter. (L. sativa). They were dipped in the treatment solution one second per disc. This test involved the 5/5 configuration, i.e., 5 treated and 5 untreated. […] Damage was evaluated in 5% increments based on total disc area. […]
MEASURED_METRIC: Percent Lepidopteran Damage to Romaine Lettuce 72 hr (%)
Number only, in %; omit the unit.

Asked: Please give the measured Percent Lepidopteran Damage to Romaine Lettuce 72 hr for this compound: CC1(C)C(C=C(Cl)Cl)C1C(=O)OCc1cccc(Oc2ccccc2)c1 (centres unmarked)
Given back: 3.0

Asked: Look up Percent Lepidopteran Damage to Romaine Lettuce 72 hr: COc1cccc(C(=O)NN(C(=O)c2cc(C)cc(C)c2)C(C)(C)C)c1C [Methoxyfenozide]
Given back: 88.0

Asked: Can you share its Percent Lepidopteran Damage to Romaine Lettuce 72 hr? I mean this compound: COP(=O)(NC(C)=O)SC (centres unmarked) [Acephate]
Given back: 51.0

Asked: What value of Percent Lepidopteran Damage to Romaine Lettuce 72 hr has been reported for the following compound? `COC(=O)N(C(=O)N1CO[C@@]2(C(=O)OC)Cc3cc(Cl)ccc3C2=N1)c1ccc(OC(F)(F)F)cc1`
Given back: 34.5

Asked: Percent Lepidopteran Damage to Romaine Lettuce 72 hr lookup needed for `CNC(=O)c1cc(Cl)cc(C)c1NC(=O)c1cc(Br)nn1-c1ncccc1Cl` , thanks.
Given back: 12.5

* * *

- System: lepidopteran larvae: cabbage loopers (Trichoplusia ni) and beet armyworms (Spodoptera exigua)
- Assay type: in vivo
- DETAILS: plants; insecticide alone, increased; PPM: Chlorantranilopril 90, Acephate 105, Methoxyfenozide 150, Spinosad 45, Permethrin 15, Indoxacarb 75
Values of Percent Lepidopteran Damage to Romaine Lettuce 24 hr greater than or equal to 20% map to Met; values below map to Not met.

Asked: For this compound, is measured Percent Lepidopteran Damage to Romaine Lettuce 24 hr 20% or higher? COc1cccc(C(=O)NN(C(=O)c2cc(C)cc(C)c2)C(C)(C)C)c1C [Methoxyfenozide]
Given back: Met

Asked: Identify whether the reported Percent Lepidopteran Damage to Romaine Lettuce 24 hr of the following compound is 20% or greater: CC1(C)C(C=C(Cl)Cl)C1C(=O)OCc1cccc(Oc2ccccc2)c1 (centres unmarked) [Permethrin]
Given back: Met

Asked: Evaluate COP(=O)(NC(C)=O)SC (centres unmarked) [Acephate] : Percent Lepidopteran Damage to Romaine Lettuce 24 hr at minimum 20%?
Given back: Not met

Asked: Quick check, Percent Lepidopteran Damage to Romaine Lettuce 24 hr >= 20%? CNC(=O)c1cc(Cl)cc(C)c1NC(=O)c1cc(Br)nn1-c1ncccc1Cl [Chlorantranilopril]
Given back: Not met
